# TARGET_OR_TEST_SYSTEM: prefusion conformation-stabilized SARS-CoV-2 spike ectodomain (S2Pecto) protein (SARS-CoV-2, UniProt P0DTC2 14-1213; P10104 458-484)
# MEASUREMENT_NOTES: ELISA, purified IgG
RECORDED_METRIC: OD 450 nm

[[record]]
binder = "COV2-2068 (antibody, V domains shown) VH: EVQLVESGGGLVQPGGSLRLSCAASGFTVSSNYMSWVRQAPGKGLEWVSVIYPGGSAFYADSVKGRFTISRHNSNNTLCLQMNSLRTEDTAVYYCARSYDILTGYRDAFDIWGQGTMVTVSS VL: QSVLTQPPSVSGAPGQRVTISCTGSSSNIGSGSDVHWYQQLPGTAPKLLIYGNTNRPSGVPDRFSGSKSGTSASLAITGLQAEDEADYYCQSYDSRLSGFVVFGGGTKLTVL"
reported_result = "4.3 OD 450 nm"

[[record]]
binder = "COV2-2113 (antibody, V domains shown) VH: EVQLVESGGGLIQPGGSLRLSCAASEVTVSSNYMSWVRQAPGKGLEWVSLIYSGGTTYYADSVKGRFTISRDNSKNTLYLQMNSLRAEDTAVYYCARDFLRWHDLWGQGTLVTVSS VL: DIQMTQSPSSLSASVGDRVTITCQASQDINNYLNWYQQKPGKAPKLLIYDASNLETGVPLRFSGSGSGTDFIFTISSLQPEDIATYYCQQYDNLPPVFGGGTKVEIK"
reported_result = "4.4 OD 450 nm"

[[record]]
binder = "COV2-2098 (antibody, V domains shown) VH: EVQLLESGGGLIQPGGSLRLSCAASGFTFSNYAMSWVRQAPGKGLEWVSGIISTSGGATYNADSVRGRFTTSRDNSKNILYLQMNSLRGEDTAVYYCVKGLFDWFPLWGQGTMVTVSS VL: DIVMTQSPATLSVSPGERAILSCRASQSVRSNLAWYQQKPGQAPRLLISGASTRATAIPARFSGSGSGTEFTLTITSLQSEDCAVYYCHQYNNWPQTFGQGTKVEIK"
reported_result = "4.3 OD 450 nm"

